# assay target: human IL-17AA (Homo sapiens, UniProt Q16552)
# test details: IL-8 release assay in human epithelial keratinocytes adult (HEKa)
# cond: HEKa cells, 3 ng/mL HEK-human IL-17AA + 10 ng/mL human TNFalpha; read-out: Rel EC50 IL-8 release assay
experimental endpoint: EC50

(Q) Record request: EC50 value, item Cc1n[nH]c(C)c1-c1ccc(NC(=O)[C@@H](NC(=O)c2ccnn2CCC(C)O)[C@H]2CC[C@H](C)CC2)cc1 (some centres unmarked)
(A) < 100 nM

(Q) Would you kindly repeat that for CCn1nccc1C(=O)N[C@H](C(=O)Nc1ccc(-c2c(C)cnn2C)c(O)c1)C(C1CC1)C1CC1 ?
(A) < 100 nM

(Q) And for Cc1n[nH]c(C)c1-c1ccc(NC(=O)C(NC(=O)c2ccnn2CCC(C)O)C2CCCCCCC2)cc1 (single isomer, unassigned) [Example 142] ?
(A) 100 to 1000 nM

(Q) How about Cn1cncc1-c1ccc(NC(=O)[C@H](Cc2cc(C#N)ccc2Cl)NC(=O)c2ccnn2C)cc1 ?
(A) > 1000 nM

(Q) Also check Cc1n[nH]c(C)c1-c1ccc(NC(=O)[C@@H](NC(=O)c2ccnn2[C@@H](C)CO)C(C)C2CCC2)cc1 (single isomer, unassigned) [Example 174]
(A) 100 to 1000 nM

(Q) And for CCn1nccc1C(=O)NC(C(=O)Nc1ccc(-c2c(C)n[nH]c2C)cc1)C(C1CCC1)C1CCC1 (single isomer, unassigned) [Example 37] ?
(A) 100 to 1000 nM

(Q) Subsequent entry: Cn1cnnc1-c1ccc(NC(=O)[C@@H](NC(=O)c2cnnn2-c2ccccc2)C2CCCCC2)cc1
(A) > 1000 nM

(Q) Record: Cc1n[nH]c(C)c1-c1ccc(NC(=O)[C@@H](NC(=O)c2cnn3ccccc23)C2CCCCC2)cc1
(A) 100 to 1000 nM

(Q) Okay, and Cc1noc(CO)c1-c1ccc(NC(=O)[C@@H](NC(=O)c2ccnn2C(C)C)C(C2CC2)C2CC2)cc1 ?
(A) 100 to 1000 nM

(Q) Another molecule to check: Cc1n[nH]c(C)c1-c1ccc(NC(=O)[C@@H](NC(=O)c2ccnn2C(C)C)[C@H]2CCCC3(CC3)C2)cc1
(A) < 100 nM

(Q) Record: Cc1n[nH]c(C)c1-c1ccc(NC(=O)[C@@H](NC(=O)c2ccnn2CC2CC2)C(C2CC2)C2CC2)cc1
(A) < 100 nM

(Q) Another molecule: Cc1n[nH]c(C)c1-c1ccc(NC(=O)C(NC(=O)c2ccnn2C)[C@H]2CCCc3ccc(F)cc32)cc1 (some centres unmarked)
(A) < 100 nM

(Q) Cool, now CCC(CC)[C@H](NC(=O)c1ccnn1C(C)C)C(=O)Nc1ccc(-c2c(C)n[nH]c2C)cc1
(A) 100 to 1000 nM

(Q) // repeat for Cn1cncc1-c1ccc(NC(=O)[C@@H](NC(=O)c2ccnn2C)C(c2ccccc2)c2ccccc2)cc1 and report
(A) 100 to 1000 nM

* * *

# assay target: human IL-17AA (Homo sapiens)
# Sequence (Q16552 24-155): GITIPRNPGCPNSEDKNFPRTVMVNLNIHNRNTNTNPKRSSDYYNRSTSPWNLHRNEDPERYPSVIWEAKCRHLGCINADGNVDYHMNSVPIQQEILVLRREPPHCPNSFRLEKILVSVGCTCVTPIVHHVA
# test details: IL-8 release assay in human epithelial keratinocytes adult (HEKa)
# cond: HEKa cells, 3 ng/mL HEK-human IL-17AA + 10 ng/mL human TNFalpha; read-out: Rel EC50 IL-8 release assay
experimental endpoint: EC50

Examples from the recorded data:
Cc1ncccc1-c1ccc(NC(=O)[C@@H](NC(=O)c2ccnn2C(C)C)C(C2CC2)C2CC2)cc1    100 to 1000 nM
Cc1n[nH]c(C)c1-c1ccc(NC(=O)[C@@H](NC(=O)C(F)(F)c2ccccc2)C2CCCCC2)cc1    100 to 1000 nM
Cc1noc(C)c1-c1ccc(NC(=O)[C@@H](NC(=O)c2ccnn2C(C)C)C(C2CC2)C2CC2)cc1    < 100 nM
Cc1n[nH]c(C)c1-c1ccc(NC(=O)[C@@H](NC(=O)c2ccnn2C)[C@H]2CCCc3ccc(Br)cc32)cc1    < 100 nM
Cc1n[nH]c(C)c1-c1ccc(NC(=O)[C@@H](NC(=O)c2ccnn2CCO)C2CCCCC2)cc1    100 to 1000 nM

(Q) What value of EC50 on human IL-17AA (Homo sapiens) does Cc1n[nH]c(C(C)O)c1-c1ccc(NC(=O)[C@@H](NC(=O)c2ccnn2C)C2CCCCC2)cc1 (stereo partly shown) have?
(A) 100 to 1000 nM

(Q) Okay, and Cc1n[nH]c(C)c1-c1ccc(NC(=O)[C@@H](NC(=O)c2ccnn2C(C)C)C2CCC3(CC2)CC3)cc1 ?
(A) < 100 nM

(Q) Quick one: Cc1n[nH]c(C)c1-c1ccc(NC(=O)[C@@H](NC(=O)c2ccnn2C)[C@H]2CCCCC(F)(F)C2)cc1
(A) 100 to 1000 nM

(Q) Now consider Cc1n[nH]c(C)c1-c1ccc(NC(=O)C(NC(=O)c2ccnn2CCC(C)O)C2CCCCCCC2)cc1 (single isomer, unassigned) [Example 145] .
(A) < 100 nM

(Q) // next record CC(C)n1nccc1C(=O)N[C@H](C(=O)Nc1ccc(-c2cccnc2CO)cc1)C(C1CC1)C1CC1
(A) 100 to 1000 nM

(Q) Do the same for Cc1n[nH]c(C)c1-c1ccc(NC(=O)[C@@H](NC(=O)c2ccnn2C)[C@H]2CCOc3ccccc32)cc1 please
(A) 100 to 1000 nM

(Q) Then what about the molecule Cc1n[nH]c(C)c1-c1ccc(NC(=O)[C@H](CC2CCC(F)(F)CC2)NC(=O)c2ccnn2C)cc1 ?
(A) > 1000 nM

(Q) Likewise for CCC(CC)[C@H](NC(=O)c1ccnn1C)C(=O)Nc1ccc(-c2c(C)n[nH]c2C)cc1 ?
(A) 100 to 1000 nM

(Q) And the next one, Cc1ncn(C)c1-c1ccc(NC(=O)[C@@H](NC(=O)OC(C)(C)C)C2CCCCC2)cc1 ?
(A) 100 to 1000 nM

(Q) And what about the molecule Cc1n[nH]c(C)c1-c1ccc(NC(=O)[C@@H](NC(=O)c2ccnn2C2CCC2)C(C2CC2)C2CC2)cc1 ?
(A) < 100 nM

(Q) What about Cc1ncn(C)c1-c1ccc(NC(=O)[C@@H](NC(=O)OC(C)(C)C)C2CCCCCC2)cc1 ?
(A) 100 to 1000 nM
